Target: T1, SSBP1 WT (mtSSB) (human, UniProt Q04837 17-148)
T1 sequence: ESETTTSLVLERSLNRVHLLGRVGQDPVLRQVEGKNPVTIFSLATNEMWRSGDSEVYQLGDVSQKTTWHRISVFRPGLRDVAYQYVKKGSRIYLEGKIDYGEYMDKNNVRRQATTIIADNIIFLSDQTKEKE
Assay: fluorescence anisotropy; 5 mM MgCl2; apparent Kd, protein as tetramer; 20 nM DNA; quadratic fit; 30 mM HEPES-KOH pH 7.6, 50 mM KCl, 2 mM DTT, 5 mM MgCl2, 20 nM FAM-oligonucleotide, 37 C
Conditions: protein: recombinant; chain copies: 4; label: 3' FAM (fluorescein); single strand
Measured Attribute: Kd (nM)
Just the number please, in nM, no unit attached.

Request: I'd like to know its Kd. The binder in question is AATGCTATCACTATTCGTAGACTTGACCACACCTTGTCAGCTCACGCTCC (ssDNA) [FAM-labeled 50 nt ssDNA]
Result: 2.3
